# System: SW-620 colon
# assay-overview: NCI-60 one-dose screen, 48 h (100 = growth as untreated, 0 = no growth, -100 = all killed)
# test-parameters: 10 µM unless noted
Compounds without any hit were thinned out: in the full panel of roughly 83,000, 20% have a hit.
Threshold check on growth: at or above 70% gives true (1), strictly below gives false (0).

compound | class-label
CCCCCCCCCCCCOC(=O)/C=C\C(=O)NC(N)=O | true (1)
CCCCCCNC(=O)Oc1ccc(/C(=C(/C)Cc2ccc(OC)cc2)c2ccc(OCCN(C)C)cc2)cc1 | false (0)
O=C1/C(=N\c2cc(=O)[nH]n2S(=O)(=O)c2ccccc2)Nc2ccccc21 | true (1)
O=C1C(Cl)=C(SC2=NCCN2)C(=O)c2ccccc21 | true (1)
O=C(/C(Br)=C/c1ccccc1)c1ccccc1 | false (0)
COc1cccc(CNC(=O)c2cccc(C3CC(=O)c4c(cc(OC)c(OC)c4OC)O3)c2)c1 (stereo not given) | false (0)
O=C1C(Br)=CC2C1C1C3CCC3C2(Br)C12OCCO2 (stereo not given) | false (0)
CC1(C)C(O)NC(Cl)=C(C#N)C1(C#N)C#N (stereo not given) | true (1)
O=C(N/N=C\c1ccc(-c2ccc(Br)cc2)o1)c1cc2oc(-c3cccc(C(F)(F)F)c3)cc2[nH]1 | true (1)

---

# System: HCT-116 colon
# assay-overview: NCI-60 one-dose screen, 48 h (100 = growth as untreated, 0 = no growth, -100 = all killed)
# test-parameters: 10 µM unless noted
About 83,000 compounds went through this panel and 20% of them were active in at least one assay; those are over-represented in the sample as a whole. Calls of active or inactive are those of the source. Rule for the calls: active = growth percent below 10; inactive = the rest.

compound | growth
CC(C)CSc1nc(-c2ccc(F)cc2)c(C#N)c(N2CCCCC2)n1 | 89.5% (inactive)
COc1ccc(-n2nnnc2-c2cn[nH]c2C(F)(F)F)cc1 | 97% (inactive)
O=C(/C=C/c1ccc(Cl)cc1)c1ccc(Cl)cc1 | 69.8% (inactive)
CC(=O)OC1/C=C\CC/C=C\C1 (stereo not drawn) | 107% (inactive)
O=C(CCl)NC1c2ccccc2Oc2ccccc21 | 45.9% (inactive)
CC[C@H](Nc1ncnc2nc[nH]c12)c1nc2cccc(NCc3ccc(C(=O)NO)nc3)c2c(=O)n1-c1ccccc1 | 9.03% (active)
C=C(NC(=O)[C@H](C(C)C)N(C)c1cccc2[nH]ccc12)C(=O)OC | 94.1% (inactive)
COc1ccc(OC)c(Cn2cc3c(c2)-c2oncc2CC3)c1 | 16.8% (inactive)
COC(=O)c1ccc2[nH]c(O)c(C(=Nc3ccc(N(C)C(=O)CN4CCN(C)CC4)cc3)c3ccc4c(c3)OCO4)c2c1 | 0.577% (active)
Cc1ncc(C(=O)Nc2ccc(CN3CCN(C)CC3)c(C(F)(F)F)c2)cc1C#Cc1cnc(NC2CC2)c2ncccc12 | -90% (active)
NC(CSC(c1ccccc1)(c1ccccc1)c1ccccc1)C(=O)NCC(=O)O (stereo not drawn) | 40.8% (inactive)
CCOc1ccc2nc3ccc(Cl)cc3nc2c1 | 88.1% (inactive)
O=C(CCCC(=O)Nc1ccc(Cn2nnc3cc(Cl)c(Cl)cc32)cc1)Nc1ccc(CN2N=NC3C=C(Cl)C(Cl)=CC32)cc1 (stereo not drawn) | 75.1% (inactive)
Cc1ccc(NC(=O)CCl)cc1Cl | 106% (inactive)
CC(C)OC(=O)Nn1cnc2ccccc21 | 87.4% (inactive)
[N-]=[N+]=Nc1ncc(-c2ccc(C(F)(F)F)cc2)c(NC2CCCCCC2)n1 | 16% [100 µM] (inactive)
COC(=O)CC(=O)C(=O)OC | 93.4% (inactive)
COc1ccc(-c2cc(C#N)c(NNC(C)=O)[nH]2)cc1 | 92% (inactive)
CC(C)(CNC1CCCCC1)OC(=O)c1ccccc1 | 103% (inactive)
C=CCNCCC#N | 100% (inactive)
COc1ccc(/C=N/c2cc(C(C)(C)C)nn2-c2ccccc2)cc1 | 92.8% (inactive)
CCN(CCO)CCNc1ccc(C)c2sc3cc(OC)ccc3c(=O)c12 | 20.5% (inactive)
CN1NC(c2ccccc2)NN(C)C1=O | 101% (inactive)
